The reported numbers originate from patent US8367873B2.

Test system: cereals
EXPERIMENT: Container trials with cereals in the greenhouse, use of safeners (Mefenpyr 1 day prior to herbicide application)
Assay type: in vivo
CONDITION DETAILS: summer wheat, 28 days after application, 12.5 g of a.i./ha
Kindly state Summer wheat observed (%) for each of the entries shown.
Give the value; after it, write the unit.

Give me Summer wheat observed (%) for each of these compounds, listed below.
1. C=C1COC2(C[C@@H]3C(O)=C(c4c(CC)cc(C)cc4CC)C(=O)[C@@H]3C2)OC1
2. CCc1cc(C)cc(CC)c1C1=C(O)[C@H]2CC3(C[C@H]2C1=O)OCC=CCO3 (relative stereo)
3. CCc1cc(C)cc(CC)c1C1=C(O)[C@H]2C[C@]3(COC(C)(C)O3)C[C@H]2C1=O
4. CCc1cc(C)cc(CC)c1C1=C(O)[C@H]2CC3(C[C@H]2C1=O)OCC(C)CO3 (relative stereo)
5. CCc1cc(C)cc(CC)c1C1=C([O-])C2CC3(CC2C1=O)OC(C)CC(C)O3.[Na+] (mixture of isomers)

Solution:
1: 10%; 2: 10%; 3: 40%; 4: 10%; 5: 20%
